Each recorded value in this set is attributed to ChEMBL document CHEMBL1921780.

Assay: Selectivity index, ratio of IC50 for rat L6 cells to IC50 for Trypanosoma cruzi Tulahuen C4
Type: toxicity, cell-based
Settings: L6 cells versus Trypanosoma cruzi Tulahuen C4, read-out: Ratio IC50
Reported metric: selectivity ratio
Keep it simple and answer with nothing but the number.

Record excerpt, results attached:
Smiles text	Reported metric	Measured value
Cl.O=[N+]([O-])c1ncn(CCCCNc2ccnc3cc(Cl)ccc23)n1	selectivity ratio	976
Cl.O=[N+]([O-])c1ncn(CCCNCc2cc(C(F)(F)F)cc(C(F)(F)F)c2)n1	selectivity ratio	816
Cl.O=[N+]([O-])c1ncn(CCCCNc2ccnc3cccnc23)n1	selectivity ratio	208
COc1cc2nc(Cl)nc(NCCCCn3ccnc3[N+](=O)[O-])c2cc1OC	selectivity ratio	17
O=[N+]([O-])c1ncn(CCCN(Cc2cc(C(F)(F)F)cc(C(F)(F)F)c2)Cc2cc(C(F)(F)F)cc(C(F)(F)F)c2)n1	selectivity ratio	40
Cl.O=[N+]([O-])c1ncn(CCCN(Cc2ccc3ccc(Cl)cc3n2)Cc2ccc3ccc(Cl)cc3n2)n1	selectivity ratio	200

# input What value of selectivity ratio has been recorded for this entry: Cl.Cl.O=[N+]([O-])c1ncn(CCCN2CCN(c3ccc(C(F)(F)F)cc3)CC2)n1
# output 1320
